Measured log10 MIC, listed per entry for reference.
System: A. niger 16404
Assay: In vitro antifungal activity, MIC (modified Autotiter method)
Assay type: cell-based, Aspergillus niger
Conditions: Aspergillus niger, 16404, 20 h, 18-20 hours at 37° C.; read-out: MIC A. niger 16404
Values below are the log10 of the recorded MIC, with µg/mL as the unit.

Reference set (8 entries):
CCCCCCCCCCNc1cc[n+](CCCCCCCC[n+]2ccc(NCCCCCCCCCC)cc2)cc1 : 1.19
CCCCC(CC)CNc1cc[n+](CCCC[n+]2ccc(NCC(CC)CCCC)cc2)cc1 (centres unmarked) : 1.50
CCCCCCCNc1cc[n+](CCCCC[n+]2ccc(NCCCCCCC)cc2)cc1 : 1.19
CCCCC(CC)CNc1cc[n+](CCCCC[n+]2ccc(NCC(CC)CCCC)cc2)cc1 (centres unmarked) : 1.50
CCCCCCNc1cc[n+](CCCCCCCCCC[n+]2ccc(NCCCCCC)cc2)cc1 : 0.59
CCCCCCCCNc1cc[n+](CCCCCCCCCCCC[n+]2ccc(NCCCCCCCC)cc2)cc1 : 0.89
Fc1ccc(Nc2cc[n+](CCCCCC[n+]3ccc(Nc4ccc(F)cc4)cc3)cc2)cc1 [Example 83B] : 1.50
CCCCCCCCCCCCNc1cc[n+](CCCCCC[n+]2ccc(NCCCCCCCCCCCC)cc2)cc1 : 1.80

Now take the following molecule into account.
For the molecule shown here, `CCCCCCCNc1cc[n+](CCCCCCCCCC[n+]2ccc(NCCCCCCC)cc2)cc1` , give the reported log10 MIC. 0.47

###

System: S. Aureus Smith
Assay: In vitro antibacterial activity, MIC (modified Autotiter method)
Assay type: cell-based, Staphylococcus aureus
Conditions: Staphylococcus aureus, 20 h, 18-20 hours at 37° C.; read-out: MIC S. Aureus Smith
Measured MIC by item
The reply should be a number in µg/mL, with the unit left off.

Please review the entries below; each comes with its answer.
Nc1cc[n+](CCCCCCCCCCCC[n+]2ccc(N)cc2)cc1 [V, reference compound] : 1.95
CCCCCCCNc1cc[n+](CCCCCCCCCCCCCC[n+]2ccc(NCCCCCCC)cc2)cc1 : 1
CCCCCCNc1cc[n+](CCCCCCCCCCCCCC[n+]2ccc(NCCCCCC)cc2)cc1 : 0.38
CCCCCCCCCCNc1cc[n+](CCCCCCCC[n+]2ccc(NCCCCCCCCCC)cc2)cc1 : 1
CCCCCCCCNc1cc[n+](CCCCCCCCC[n+]2ccc(NCCCCCCCC)cc2)cc1 [Example 44A] : 1

// MIC lookup, key: `CCCCCCNc1cc[n+](CCCC[n+]2ccc(NCCCCCC)cc2)cc1` 7.8

Also need Clc1ccc(Nc2cc[n+](CCCC[n+]3ccc(Nc4ccc(Cl)cc4)cc3)cc2)cc1 [Example 76C] , thanks. 7.8

Next compound: `CCCCCCCCNc1cc[n+](CCCCCC[n+]2ccc(NCCCCCCCC)cc2)cc1` 0.5

###

System: young adult male Swiss-Webster strain albino mice
Experiment: Acute oral toxicity (ALD50)
Type: in vivo
Conditions: 500 mg/kg oral, suspension in 1% G.T.
Description: The acute oral toxicity (ALD50) of several representative examples was determined as follows: Groups of 3 young adult male Swiss-Webster strain albino mice were fasted approximately 4 hours before medication and then medicated once orally by stomach tube.
Parameter Mortality 7 Days: see the listing below.

CCCCC(CC)CNc1cc[n+](CCCCCCCC[n+]2ccc(NCC(CC)CCCC)cc2)cc1 (stereo not shown) : 0/3
CCCCCCCNc1cc[n+](CCCCCCCCCCCC[n+]2ccc(NCCCCCCC)cc2)cc1 [Example 3] : 1/3
CCCCCCCCCNc1cc[n+](CCCCCCCC[n+]2ccc(NCCCCCCCCC)cc2)cc1 [Example 29C] : 0/3

Let's switch to this molecule now.
Which Mortality 7 Days value is on record for `CCCCCCCNc1cc[n+](CCCCCCCCCC[n+]2ccc(NCCCCCCC)cc2)cc1` ? 0/3
